B1: Far upstream element-binding protein 3, residues 75 to 150; numbered along this chain, Q96I24 (parent)
chain: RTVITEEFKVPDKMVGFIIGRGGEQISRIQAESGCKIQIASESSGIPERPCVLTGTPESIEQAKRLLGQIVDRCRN

- Variants of: B1
- run-description: abundance fitness (aPCA) (normalised: wild type 0, dead -1); higher = more abundant; growth selection in yeast, the domain comes from the species named
- condition-parameters: Homo sapiens
Classify by abundance fitness. Ranges: lowest: < -0.2; middle: ≥ -0.2 and < -0.05; highest: ≥ -0.05

Sample answers from the record:
Q62D: highest
R65L: highest
A40N: middle
L66W: middle
T56G: lowest
G34Q: middle

Q) # bin label for R1G
A) highest

Q) # bin label for Q30P
A) lowest

Q) # bin label for A63L
A) lowest
